Reference source for all entries: ChEMBL document CHEMBL1129473

assay system: 4-aminobutyrate aminotransferase, mitochondrial (Sus scrofa, UniProt P80147)
Sequence (P80147 whole entry): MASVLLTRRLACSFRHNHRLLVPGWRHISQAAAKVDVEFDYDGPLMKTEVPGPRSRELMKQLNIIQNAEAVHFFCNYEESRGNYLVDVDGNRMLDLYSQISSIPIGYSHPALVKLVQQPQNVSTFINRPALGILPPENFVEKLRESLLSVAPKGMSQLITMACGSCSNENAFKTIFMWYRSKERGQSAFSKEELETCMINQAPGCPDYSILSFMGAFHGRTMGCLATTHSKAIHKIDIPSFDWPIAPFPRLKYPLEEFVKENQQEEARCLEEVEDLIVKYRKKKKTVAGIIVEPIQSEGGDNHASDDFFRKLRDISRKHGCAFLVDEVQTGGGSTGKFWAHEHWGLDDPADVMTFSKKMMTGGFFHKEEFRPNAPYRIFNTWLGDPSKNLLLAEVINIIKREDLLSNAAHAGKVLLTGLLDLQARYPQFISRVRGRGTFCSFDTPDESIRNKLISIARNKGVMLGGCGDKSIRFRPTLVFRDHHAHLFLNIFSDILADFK
Where a name gives a salt, the structure may show the parent alone.
pKi for assorted compounds
Friendly reminder that pKi comes from taking -log10 of the concentration in mol/L.

>>> print(df.to_string())
                compound  endpoint_result
0  CNN [METHYLHYDRAZINE]             5.66

Consider the record given below.
[in] Answer briefly: pKi recorded on 4-aminobutyrate aminotransferase, mitochondrial (Sus scrofa, UniProt P80147) for NNCc1cccc(O)c1 [3-HYDROXYBENZYLHYDRAZINE DIHYDROCHLORIDE]
[out] 6.52
